Reference for the values: PubChem BioAssay (NCATS)

- Assay overview: qHTS of pediatric cancer cell lines to identify multiple opportunities for drug repurposing: Confirmatory screen for BT-37 cells (AID 1347117); further: potency means the concentration at half of the fitted maximal effect;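 further: viability measured after 48 h of compound exposure; nearly all actives have a fitted effect of over 55% in size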
- Run parameters: BT-37 pediatric cancer cells, viability
Records with an inconclusive call do not appear. Activity calls are given as the source filed them. The call rests on the fitted dose curve; in most records, active means well fitted cell-killing curve with a large enough effect; inconclusive means small, poorly fitted or top-dose-only effect; inactive means no such curve, though single readings can be large or run the other way.
Observable: Potency

> print(dat)
                                   molecule  observable  experimental.result
1  COc1ccc2c(c1OC)C(=O)OC2[C@H]1c2c(cc3c(c2OC)OCO3)CCN1C (some centres undefined)     Potency             inactive
2     N#CNC(=NCCCCCCOc1ccc(Cl)cc1)Nc1ccncc1     Potency     18.5 nM (active)
3      C[C@@]12C(=O)OC(=O)[C@@]1(C)C1CCC2O1     Potency     2080 nM (active)
4  CC(C=CC(=O)NO)=C[C@@H](C)C(=O)c1ccc(N(C)C)cc1     Potency      827 nM (active)
5  C=CCNC1=C2C[C@@H](C)C[C@H](OC)[C@@H](O)[C@@H](C)C=C(C)[C@H](OC(N)=O)[C@@H](OC)C=CC=C(C)C(=O)NC(=CC1=O)C2=O     Potency     92.8 nM (active)
6  COC1=C2C[C@@H](C)C[C@H](OC)[C@@H](O)[C@@H](C)C=C(C)[C@H](OC(N)=O)[C@@H](OC)C=CC=C(C)C(=O)NC(=CC1=O)C2=O     Potency     1040 nM (active)
7  COC(=O)[C@@H]1[C@H]2C[C@@H]3c4[nH]c5ccccc5c4CCN3C[C@@H]2CC[C@@H]1O     Potency             inactive
8  Oc1cc(-c2nc(-c3ccccc3)[nH]c2-c2ccncc2)ccc1Cl     Potency     2610 nM (active)
9  C=CC(=O)Nc1ccc2ncnc(Nc3ccc(OCc4cccc(F)c4)c(Cl)c3)c2c1     Potency     9270 nM (active)
